Recorded measurements of growth, one per entry
# Test system: UACC-257 melanoma
# assay_explanation: NCI-60 one-dose screen, 48 h (100 = growth as untreated, 0 = no growth, -100 = all killed)
# run_parameters: 10 µM
This is part of a sample that, as a whole, favours compounds with a hit. Of some 83,000 tested, about 20% had one in any assay.
API: value field is a number in %; no unit string.

Reference set (3 entries):
CC(O)COc1ccc(-c2ccccc2)cc1 (centres undefined)    119
CCCNC(=O)c1ccc(S(N)(=O)=O)cc1    110
COc1ccc(NC(=O)CCl)cc1    60.4

Simply: CCCCOC(=O)c1ccc(C(C)C)cc1 , UACC-257 melanoma, growth = 77.3

Simply: OCCN(CCO)C(=S)S , UACC-257 melanoma, growth = 79.6

Simply: CC(C)OC(=O)c1cc(NC(=S)OC(C)C)ccc1Cl , UACC-257 melanoma, growth = 78.9

Simply: OCCN1CCOCC1 , UACC-257 melanoma, growth = 99.7

Simply: Cc1ccncc1C(N)=O , UACC-257 melanoma, growth = 110

Simply: CC(C)=NNc1ccc([N+](=O)[O-])cc1[N+](=O)[O-] , UACC-257 melanoma, growth = 101

Simply: CC1=CC(C)(C)NC(=S)N1c1ccc(S(=O)(=O)O)c2cccc(S(=O)(=O)O)c12 , UACC-257 melanoma, growth = 112

Simply: O=c1[nH]cc(Cl)cc1O , UACC-257 melanoma, growth = 92.3

Simply: CCCCC(CC)COC(C)=O (centres undefined) , UACC-257 melanoma, growth = 104

Simply: CCOC(=O)C(=O)C=P(c1ccccc1)(c1ccccc1)c1ccccc1 , UACC-257 melanoma, growth = 111

Simply: N#Cc1c(N)sc(=S)c2c1CCCC2 , UACC-257 melanoma, growth = 110
